The origin of these recorded values is paper PMC9482650.

# Target Entity: T1, ARHGEF11, O15085
# T1 sequence (O15085 42-136, limits assumed, looked up): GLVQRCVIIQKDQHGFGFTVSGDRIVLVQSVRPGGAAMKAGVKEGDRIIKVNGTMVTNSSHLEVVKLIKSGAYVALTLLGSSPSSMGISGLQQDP
# Run Description: holdup assay
# Parameters: key: below the threshold = too weak to quantify, mostly under pKd 3.1 to 4
# Test Context: plain residues with an end cap or a label only (N-terminal biotin on a linker: ado-ado)
Parameter: pKd

Recorded results for 4 binders are shown here.
Binder | pKd
NLSIEKETKL [ASNSD1, Q9NWL6] | below the threshold
TSQESEDTYL [TBC1D10A, Q9BXI6] | below the threshold
QSPANIYYKV [EFNB1, P52799] | below the threshold
LRSPRTPSEV [OR10G3, Q8NGC4] | below the threshold

Exercise: Looking for the measured pKd of VYPNAKVELV [PDLIM4_iso2, P50479;P50479-1] , can you help?
Solution: below the threshold

Exercise: Looking for the measured pKd of PLSPEQPTKL [TRIM50, Q86XT4] , can you help?
Solution: below the threshold

Exercise: Looking for the measured pKd of NHSSSPETTA [TRMT13, Q9NUP7] , can you help?
Solution: below the threshold

Exercise: Looking for the measured pKd of TLPRKRMSSI [GPRC6A, Q5T6X5] , can you help?
Solution: below the threshold

Exercise: Looking for the measured pKd of QPCFNKLFPL [LPXN, O60711] , can you help?
Solution: below the threshold
